The values you see were collected from patent US11802133B2.

Please provide measured IC50 for the entries that follow.
- system: MAGL (recombinant wild-type) (Homo sapiens (Human))
- Sequence (Q99685 whole entry, species assumed): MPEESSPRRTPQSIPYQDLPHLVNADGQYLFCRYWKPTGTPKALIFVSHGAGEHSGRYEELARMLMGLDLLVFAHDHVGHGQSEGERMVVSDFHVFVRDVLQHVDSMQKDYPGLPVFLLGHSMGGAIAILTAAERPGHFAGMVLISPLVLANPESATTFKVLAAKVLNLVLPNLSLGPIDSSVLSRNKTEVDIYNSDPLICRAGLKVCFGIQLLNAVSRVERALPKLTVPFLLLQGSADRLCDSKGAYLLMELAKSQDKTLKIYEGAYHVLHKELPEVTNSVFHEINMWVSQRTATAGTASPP
- assayProcedure: 4-NPA assay: MAGL inhibitory activity by hydrolysis of 4-nitrophenylacetate (absorbance at 405 nm)
- condition: measured in 4-NPA assay (footnote [a]); 1 nM MAGL, 300 μM 4-nitrophenylacetate
Answers are plain numbers, in nM.

# molecule, scaleUnit, IC50
rows = [
    ("O=C1CO[C@@H]2CCN(C(=O)N3CCC(COc4ccc(F)cc4Cl)CC3)C[C@@H]2N1", "nM", 856),
    ("O=C1CO[C@H]2CCN(C(=O)N3CCC(Cc4ccc(C(F)(F)F)cc4Cl)CC3)C[C@H]2N1", "nM", 12),
    ("Cc1cc(F)ccc1OCC1CCN(C(=O)N2CC[C@@H]3OCC(=O)N[C@@H]3C2)CC1", "nM", 11),
]

// for each molecule in input: emit IC50
1. O=C1CO[C@@H]2CCN(C(=O)N3CCC(Cc4ccc(C(F)(F)F)cc4)CC3)C[C@H]2N1
2. O=C1CO[C@H]2CCN(C(=O)N3CCC(Cc4nc5c(s4)CCC5)CC3)C[C@H]2N1

Output:
1. 1500
2. 208

// for each molecule in input: emit IC50
1. COc1cc(C(F)(F)F)ccc1COC1CN(C(=O)N2CC[C@@H]3OCC(=O)N[C@@H]3C2)C1
2. O=C1CO[C@H]2CCN(C(=O)N3CCC(COc4ccc(Cl)cc4)CC3)C[C@H]2N1
3. O=C1CO[C@H]2CCN(C(=O)N3CC(OCc4ccc(C(F)(F)F)cc4F)(C(F)(F)F)C3)C[C@H]2N1
4. O=C1CO[C@H]2CCN(C(=O)N3CCC(Cc4ccc(OC(F)(F)F)cc4)CC3)C[C@H]2N1
5. O=C1CO[C@H]2CCN(C(=O)N3CCC(OCc4ccc(Cl)cc4)C3)C[C@H]2N1 (stereo partly drawn)
6. O=C1CO[C@H]2CCN(C(=O)N3CCC(Cc4nc5ccccc5o4)CC3)C[C@H]2N1
7. O=C1CO[C@H]2CCN(C(=O)N3CC(Cc4ccc(C(F)(F)F)cc4)C3)C[C@H]2N1
8. O=C1CO[C@H]2CCN(C(=O)N3CCC(OCc4cccc(Cl)c4)C3)C[C@H]2N1 (stereo partly drawn)

Output:
3
35
2180
49
146
108
119
150

// for each molecule in input: emit IC50
1. CC1(COc2ccc(F)cc2Cl)CCN(C(=O)N2CC[C@@H]3OCC(=O)N[C@@H]3C2)CC1
2. CC1C(OCc2ccc(C(F)(F)F)cc2)CN1C(=O)N1CC[C@@H]2OCC(=O)N[C@@H]2C1 (single isomer, unassigned) [Example 103]

Output:
[1, 5]
